- test-system: T1, PD-1蛋白 (human, UniProt Q15116 25-167, limits assumed)
- T1 construct: Recombinant PD-1 protein used in ELISA, SPR and BLI; also called PD-1[B]; (biotinylated)
- T1 sequence (Q15116 25-167 limits assumed): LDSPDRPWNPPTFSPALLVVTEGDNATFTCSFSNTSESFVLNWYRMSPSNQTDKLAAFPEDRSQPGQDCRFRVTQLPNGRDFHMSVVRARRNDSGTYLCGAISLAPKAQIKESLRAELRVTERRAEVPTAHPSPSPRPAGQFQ
- measurement-description: competition ELISA: PD-L1 coated, biotinylated PD-1 0.5 ug/mL, antibody titrated
property: IC50 (µg/mL)
API: value field is a number in µg/mL; no unit string.

binder	IC50 / µg/mL
1C2-3C11-Agly-YTE (antibody, V domains shown, also called 19D4-25-1C2-3C11与YTE突变、N297突变的Fc融合后得到的抗原结合蛋白) VH: EVQLQESGPGLVKPSETLSLTCTVSGFSLTSYAISWIRQPPGKGLEWIGVIWTGGGTNYNSALKSRVTISKDTSKNQVSLKLSSVTAADTAVYYCAREHYGTSPFVYWGQGTLVTVSS VL: DIVLTQTPLSLSVTPGQPASISCRASESVDNYGISFMNWFLQKPGQPPQLLIYAASNQGSGVPDRFSGSGSGTDFTLKISRVEAEDVGVYFCQQSLEVPWTFGGGTKVEIK	0.369

Lab note: next binder to report on.
# binder WT-Agly-YTE (antibody, V domains shown, also called WT-Ag-YTE; WT-AGY-YTE) VH: EVQLQESGPGLVKPSETLSLTCTVSGFSLTSYAISWIRQPPGKGLEWIGVIWTGGGTNYNSALKSRVTISKDTSKNQVSLKLSSVTAADTAVYYCARDHYGTSPFVYWGQGTLVTVSS VL: DIVLTQTPLSLSVTPGQPASISCRASESVDNYGISFMNWFLQKPGQPPQLLIYAASNQGSGVPDRFSGSGSGTDFTLKISRVEAEDVGVYFCQQSKEVPWTFGGGTKVEIK ; its IC50 = 0.411
